Experiment: qHTS assay for small molecule activators of the heat shock response signaling pathway - cell viability counter screen (AID 743209); note: nearly all actives have a fitted effect of over 50% in size
Conditions: HSE-bla HeLa viability, CellTiter-Glo luminescence, 5 h; series mostly up to 62.6 µM
Inconclusive results are not listed. Activity calls are given as the source filed them. Calls come from the whole dose curve; as a rule, active = well fitted cell-killing curve with a large enough effect in the repeat runs; inconclusive = weak or mixed curves, or effect the other way; inactive = no such curve, though single readings can be large or run the other way.
Property Name: activity change, negative = cytotoxicity

Here is how some compounds turned out for activity change, negative = cytotoxicity.
COC(=O)CCCCCCCC(=O)OC
inactive
COc1cc(NS(=O)(=O)c2ccc(N)cc2)nc(OC)n1
inactive
CCn1ccc(NS(=O)(=O)c2ccc(N)cc2)nc1=O
inactive
COc1ccc(-c2cc(=O)c3c(O)cc(O[C@@H]4O[C@H](CO[C@@H]5O[C@@H](C)[C@H](O)[C@@H](O)[C@H]5O)[C@@H](O)[C@H](O)[C@H]4O)cc3o2)cc1O
inactive

Task: Could you tell me which activity change, negative = cytotoxicity is on file for Cc1ccc(C=O)cc1C ?
Output: inactive

Task: Try the compound CCCCCCCC/C=C\CCCCCCCC(=O)OCCCC
Output: inactive

Task: Try the compound ClCCCl
Output: inactive

Task: Try the compound COc1ccc(C2CNC(=O)C2)cc1OC1CCCC1 (stereo unspecified)
Output: inactive

Task: Try the compound NS(=O)(=O)c1ccc(NC(=O)CCC(=O)O)cc1
Output: inactive

Task: Try the compound O=C1CCCC(=O)O1
Output: inactive
